- MEASUREMENT_TARGET: recombinant human baculovirus-expressed GST-tagged FASN (Homo sapiens, UniProt P49327)
- Construct: GST
- Sequence (P49327 whole entry): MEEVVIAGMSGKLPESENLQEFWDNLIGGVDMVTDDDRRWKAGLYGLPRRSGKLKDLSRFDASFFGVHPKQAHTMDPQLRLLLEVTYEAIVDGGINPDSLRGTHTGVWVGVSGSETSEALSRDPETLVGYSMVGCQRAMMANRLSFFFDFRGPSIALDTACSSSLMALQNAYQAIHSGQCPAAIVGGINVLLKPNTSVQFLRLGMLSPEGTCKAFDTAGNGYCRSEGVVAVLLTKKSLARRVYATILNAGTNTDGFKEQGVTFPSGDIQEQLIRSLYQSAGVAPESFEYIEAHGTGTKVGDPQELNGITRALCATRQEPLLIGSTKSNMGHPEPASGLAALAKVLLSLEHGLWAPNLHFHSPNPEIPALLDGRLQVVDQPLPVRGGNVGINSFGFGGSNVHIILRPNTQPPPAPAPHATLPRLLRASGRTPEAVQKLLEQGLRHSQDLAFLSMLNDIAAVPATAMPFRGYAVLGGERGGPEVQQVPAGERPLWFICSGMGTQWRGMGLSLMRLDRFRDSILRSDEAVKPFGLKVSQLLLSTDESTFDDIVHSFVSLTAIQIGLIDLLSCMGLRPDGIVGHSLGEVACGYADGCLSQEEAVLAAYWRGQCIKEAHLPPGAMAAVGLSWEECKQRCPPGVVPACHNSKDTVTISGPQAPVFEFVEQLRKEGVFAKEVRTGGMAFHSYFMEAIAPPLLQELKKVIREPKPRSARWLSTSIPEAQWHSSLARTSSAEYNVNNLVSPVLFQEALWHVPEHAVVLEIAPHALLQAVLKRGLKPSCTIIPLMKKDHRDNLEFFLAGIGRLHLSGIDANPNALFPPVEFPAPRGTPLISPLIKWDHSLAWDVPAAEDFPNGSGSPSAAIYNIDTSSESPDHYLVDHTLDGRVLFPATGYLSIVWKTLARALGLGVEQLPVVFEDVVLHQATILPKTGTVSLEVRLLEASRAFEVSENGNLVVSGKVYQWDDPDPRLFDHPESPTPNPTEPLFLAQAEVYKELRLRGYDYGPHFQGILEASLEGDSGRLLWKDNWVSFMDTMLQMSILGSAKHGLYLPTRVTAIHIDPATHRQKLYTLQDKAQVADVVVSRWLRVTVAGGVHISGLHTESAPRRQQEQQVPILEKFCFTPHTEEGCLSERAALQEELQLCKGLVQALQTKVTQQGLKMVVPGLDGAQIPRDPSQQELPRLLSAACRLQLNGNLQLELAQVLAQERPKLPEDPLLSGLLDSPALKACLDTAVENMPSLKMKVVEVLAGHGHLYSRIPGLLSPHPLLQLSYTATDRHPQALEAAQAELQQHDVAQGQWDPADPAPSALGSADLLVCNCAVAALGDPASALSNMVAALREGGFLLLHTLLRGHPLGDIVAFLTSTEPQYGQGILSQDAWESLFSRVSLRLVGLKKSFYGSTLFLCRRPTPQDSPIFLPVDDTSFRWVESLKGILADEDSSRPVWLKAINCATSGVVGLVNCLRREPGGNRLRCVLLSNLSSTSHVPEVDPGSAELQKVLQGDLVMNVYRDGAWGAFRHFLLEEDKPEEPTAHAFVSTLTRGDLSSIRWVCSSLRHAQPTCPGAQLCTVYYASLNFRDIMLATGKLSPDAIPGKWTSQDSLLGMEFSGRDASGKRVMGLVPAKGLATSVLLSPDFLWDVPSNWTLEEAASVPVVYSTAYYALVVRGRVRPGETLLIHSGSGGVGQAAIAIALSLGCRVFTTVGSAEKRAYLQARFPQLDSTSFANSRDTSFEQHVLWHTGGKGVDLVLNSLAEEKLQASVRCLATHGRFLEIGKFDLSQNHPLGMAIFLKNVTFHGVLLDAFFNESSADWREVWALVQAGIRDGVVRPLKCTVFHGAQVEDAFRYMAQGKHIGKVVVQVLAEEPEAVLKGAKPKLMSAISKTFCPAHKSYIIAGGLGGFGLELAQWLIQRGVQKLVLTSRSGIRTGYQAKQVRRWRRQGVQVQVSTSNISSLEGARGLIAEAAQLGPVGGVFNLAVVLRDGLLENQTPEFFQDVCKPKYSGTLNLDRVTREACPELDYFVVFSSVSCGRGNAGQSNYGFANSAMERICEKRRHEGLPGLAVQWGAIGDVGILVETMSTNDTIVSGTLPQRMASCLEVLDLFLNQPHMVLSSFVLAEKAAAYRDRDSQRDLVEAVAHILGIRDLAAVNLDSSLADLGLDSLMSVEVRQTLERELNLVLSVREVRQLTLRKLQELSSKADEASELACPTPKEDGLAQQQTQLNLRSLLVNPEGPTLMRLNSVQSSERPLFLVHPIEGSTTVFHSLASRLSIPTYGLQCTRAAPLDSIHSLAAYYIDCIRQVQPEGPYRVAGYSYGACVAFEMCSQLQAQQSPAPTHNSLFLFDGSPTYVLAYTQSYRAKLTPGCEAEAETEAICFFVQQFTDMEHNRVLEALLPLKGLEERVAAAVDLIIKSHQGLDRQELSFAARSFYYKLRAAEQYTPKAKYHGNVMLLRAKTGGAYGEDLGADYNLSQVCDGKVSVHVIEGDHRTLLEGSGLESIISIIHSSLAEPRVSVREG
- ASSAY_PROCEDURE: biochemical
Counter-ions that a name gives are not always drawn.
MEASUREMENT_LABEL: IC50

>>> df
                                   compound                        measurement_target  measurement_label  experimental_value
0  O=C([C@H]1CCCO1)N1CCC2(CC1)OCc1cc(-c3ccccn3)ccc1O2 [Example 220, HCl]  recombinant human baculovirus-expressed GST-tagged FASN (Homo sapiens, UniProt P49327)               IC50     0.1 to 0.999 µM
1  NC(=O)N1CCC2(CC1)OCc1cc(-c3cc4ccccc4cn3)ccc1O2 [Example 142]  recombinant human baculovirus-expressed GST-tagged FASN (Homo sapiens, UniProt P49327)               IC50          1 to 10 µM
2  Cc1c(-c2ccc3c(c2)COC2(CCN(C(N)=O)CC2)O3)ccc2cccnc12 [Example 118]  recombinant human baculovirus-expressed GST-tagged FASN (Homo sapiens, UniProt P49327)               IC50   0.001 to 0.099 µM
3  COc1c(-c2ccc3c(c2)COC2(CCN(C(=O)[C@H]4CCCO4)CC2)O3)ccc2cccnc12 [Example 56]  recombinant human baculovirus-expressed GST-tagged FASN (Homo sapiens, UniProt P49327)               IC50   0.001 to 0.099 µM
4  CCOC(=O)N1CCC2(CC1)OCc1cc(-c3cnc4ccccc4c3C)ccc1O2 [Example 138]  recombinant human baculovirus-expressed GST-tagged FASN (Homo sapiens, UniProt P49327)               IC50     0.1 to 0.999 µM
5  Cn1cnc2cc(-c3ccc4c(c3)COC3(CCN(C(N)=O)CC3)O4)ccc21 [Example 82]  recombinant human baculovirus-expressed GST-tagged FASN (Homo sapiens, UniProt P49327)               IC50     0.1 to 0.999 µM
6  CONC(=O)N1CCC2(CC1)OCc1cc(-c3cc4ccccc4cn3)ccc1O2 [Example 147]  recombinant human baculovirus-expressed GST-tagged FASN (Homo sapiens, UniProt P49327)               IC50   0.001 to 0.099 µM
7  O=C(C1CC1)N1CCC2(CC1)OCc1cc(-c3cnc4ccccc4c3)ccc1O2 [Example 40]  recombinant human baculovirus-expressed GST-tagged FASN (Homo sapiens, UniProt P49327)               IC50   0.001 to 0.099 µM

----------
Listing: IC50 of selected compounds
- MEASUREMENT_TARGET: recombinant human baculovirus-expressed GST-tagged FASN (Homo sapiens, UniProt P49327)
- Construct: GST
- ASSAY_PROCEDURE: biochemical
MEASUREMENT_LABEL: IC50

>>> print(df.to_string())
                            chemical_smiles  experimental_value
0  CCNC(=O)N1CCC2(CC1)OCc1cc(-c3ccc4cccnc4c3C)ccc1O2          1 to 99 nM
1  CONC(=O)N1CCC2(CC1)OCc1cc(-c3ccc4c(C)nccc4c3)ccc1O2          1 to 99 nM
2  CC(C)(C)OC(=O)N1CCC2(CC1)OCc1cc(-c3cnc4sccc4c3)ccc1O2    1000 to 10000 nM
3  CCOC(=O)N1CCC2(CC1)OCc1cc(-c3ccc4cnc(C)cc4c3)ccc1O2    1000 to 10000 nM
4  CC(C)C(=O)N1CCC2(CC1)OCc1cc(-c3ccc4cccnc4c3)ccc1O2          1 to 99 nM
5  Cc1cc2cc(-c3ccc4c(c3)COC3(CCN(C(=O)NO)CC3)O4)ccc2cn1       100 to 999 nM
6  Cc1cc2cc(-c3ccc4c(c3)COC3(CCN(C(N)=O)CC3)O4)ccc2cn1    1000 to 10000 nM
7  CCONC(=O)N1CCC2(CC1)OCc1cc(-c3ccc4c(C)nccc4c3)ccc1O2          1 to 99 nM

----------
- MEASUREMENT_TARGET: recombinant human baculovirus-expressed GST-tagged FASN (Homo sapiens, UniProt P49327)
- Construct: GST
- ASSAY_PROCEDURE: biochemical
- CONDITION_INFO: 5 nM FASN, 150 μM NADPH, 10 μM acetyl-CoA, 25 μM malonyl-CoA, 90 minutes incubation; read-out: IC50 data for Compounds of Formula I, Activity
pIC50: −log10 of the molar value. Counter-ions that a name gives are not always drawn.
Items are presented alongside their recorded pIC50.
MEASUREMENT_LABEL: pIC50

                                   molecule  measurement_label  experimental_value
0  Cc1c(-c2ccc3c(c2)CCC2(CCN(C(=O)C4CC4)CC2)O3)ccc2cccnc12 [Example 7, HCl]              pIC50        7.00 to 9.00
1  Cc1c(-c2ccc3c(C)nccc3c2)ccc2c1CCC1(CCN(C(N)=O)CC1)O2              pIC50        5.00 to 6.00
2  CCC(=O)N1CCC2(CCc3cc(-c4ccc5nccn5c4C)ccc3O2)CC1              pIC50        6.00 to 7.00
3  Cc1c(-c2cc(Cl)c3c(c2)CCC2(CCN(C(N)=O)CC2)O3)ccc2cccnc12              pIC50        5.00 to 6.00
4  COC(=O)N1CCC2(CC1)CC(=O)c1cc(-c3cnc4ccccc4c3)ccc1O2              pIC50        5.00 to 6.00
5  Cc1c(-c2ccc3c(c2)CCC2(CCN(C(=O)NOC(C)C)CC2)O3)cnc2ccccc12              pIC50        7.00 to 9.00
6  O=C(C1CC1)N1CCC2(CCc3cc(-c4ccc5cccnc5c4Cl)ccc3O2)CC1 [Example 10, HCl]              pIC50        7.00 to 9.00
7  Cc1cccc2cc(-c3ccc4c(c3)CCC3(CCN(C(=O)C5CC5)CC3)O4)cnc12 [Example 13, HCl]              pIC50        6.00 to 7.00

----------
Below: a set of entries, each annotated with reported IC50.
- MEASUREMENT_TARGET: recombinant human baculovirus-expressed GST-tagged FASN (Homo sapiens)
- Construct: GST
- ASSAY_PROCEDURE: biochemical
- CONDITION_INFO: 5 nM FASN, 150 μM NADPH, 10 μM acetyl-CoA, 25 μM malonyl-CoA, 90 minutes incubation; read-out: IC50 data for Compounds of Formula I, Activity
Counter-ions that a name gives are not always drawn.
MEASUREMENT_LABEL: IC50

                                    molecule  experimental_value
 0  NC(=O)N1CCC2(CCc3cc(-c4ccc5cccnc5c4Cl)ccc3O2)CC1 [Example 63]   0.001 to 0.099 µM
 1  Cc1c(-c2ccc3c(c2)CCC2(CCN(C(=O)NO)CC2)O3)ccc2nccn12 [Example 141]          1 to 10 µM
 2  CCC(=O)N1CCC2(CCc3cc(-c4ccc5cccnc5c4Cl)ccc3O2)CC1 [Example 9]   0.001 to 0.099 µM
 3  CONC(=O)N1CCC2(CC1)Cc1cc(-c3cnc4ccccc4c3C)ccc1O2 [Example 157]          1 to 10 µM
 4  O=C([C@H]1CCCO1)N1CCC2(CCc3cc(-c4ccncc4)ccc3O2)CC1 [Example 228, HCl]     0.1 to 0.999 µM
 5  CONC(=O)N1CCC2(CCc3cc(-c4ccc5cccnc5c4C)cc(F)c3O2)CC1 [Example 238]   0.001 to 0.099 µM
 6  CCC(=O)N1CCC2(CCc3cc(-c4ccc5cccnc5c4OC)ccc3O2)CC1 [Example 19]   0.001 to 0.099 µM
 7  O=C(C1CCC1)N1CCC2(C=Cc3cc(-c4cnc5ccccc5c4)ccc3O2)CC1 [Example 45]   0.001 to 0.099 µM
 8  CCC(=O)N1CCC2(CCc3cc(-c4cccnc4)ccc3O2)CC1 [Example 221, HCl]          1 to 10 µM
 9  Cc1cc2cc(-c3ccc4c(c3)CCC3(CCN(C(N)=O)CC3)O4)ccc2cn1 [Example 206]          1 to 10 µM
10  NC(=O)N1CCC2(CCc3cc(-c4cc5ccccc5cn4)ccc3O2)CC1 [Example 143]          1 to 10 µM
11  NC(=O)N1CCC2(CCc3cc(-c4ccc5occc5c4)ccc3O2)CC1 [Example 73]          1 to 10 µM
12  COc1c(-c2ccc3c(c2)CC2(CCN(C(N)=O)CC2)O3)ccc2cccnc12 [Example 162]          1 to 10 µM
13  Cc1nccc2cc(-c3ccc4c(c3)CCC3(CCN(C(=O)NCC(C)C)CC3)O4)ccc12 [Example 178]   0.001 to 0.099 µM
14  CCONC(=O)N1CCC2(CCc3cc(-c4ccc5ccnn5c4C)ccc3O2)CC1 [Example 115]   0.001 to 0.099 µM
15  Cc1c(-c2ccc3c(c2)CCC2(CCN(C(=O)C4CC4)CC2)O3)ccc2nccn12 [Example 27]     0.1 to 0.999 µM
16  Cc1cc(-c2ccc3c(c2)CCC2(CCN(C(=O)[C@H]4CCCO4)CC2)O3)cc2cccnc12 [Example 20]   0.001 to 0.099 µM
